# reported normalized growth; entries follow
assay: chemical genetic growth profiling, strain panel (AID 1159580);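 also: tested at 20 µM; growth read once vehicle control cultures reached saturation at 30 °C; 1 = growth at the plate median or of vehicle wells; lower values mean less growth of the strain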; conditions: S. cerevisiae deletion strains, growth OD, locus YIL073C, strain SPO22, active compounds read low
Screen size: about 5,500 compounds; about 2,000 (36%) were called active. Roughly 18% stayed inconclusive and do not appear here. The list shows a part of the results.
Reported Property: normalized growth

>  <Smiles Record>
O=C(/C=C/c1ccc(O)cc1)c1ccc(O)cc1O

>  <Reported Property>
normalized growth

>  <Readout Number>
0.96

$$$$
>  <Smiles Record>
O=C(/C=C/c1ccccc1)c1ccc(O[C@@H]2O[C@H](CO)[C@@H](O)[C@H](O)[C@H]2O)cc1O

>  <Reported Property>
normalized growth

>  <Readout Number>
0.956

$$$$
>  <Smiles Record>
CCCc1ncc(C[n+]2ccccc2C)c(N)n1

>  <Reported Property>
normalized growth

>  <Readout Number>
0.975

$$$$
>  <Smiles Record>
COc1ccc(/C=C/c2cc(O)cc(O[C@@H]3O[C@H](CO)[C@@H](O)[C@H](O)[C@H]3O)c2)cc1

>  <Reported Property>
normalized growth

>  <Readout Number>
1.01

$$$$
>  <Smiles Record>
OC[C@H]1O[C@@H](Oc2ccc(O)cc2)[C@H](O)[C@@H](O)[C@@H]1O

>  <Reported Property>
normalized growth

>  <Readout Number>
1.08

$$$$

* * *

assay: chemical genetic growth profiling, strain panel (AID 1159580);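 also: tested at 20 µM; growth read once vehicle control cultures reached saturation at 30 °C; 1 = growth at the plate median or of vehicle wells; lower values mean less growth of the strain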; conditions: S. cerevisiae deletion strains, growth OD, locus YPL106C, strain sse1
The whole screen tested about 5,500 compounds, of which about 2,000 (36%) were called active. Inconclusive results (about 18%) are left out. No stated cut-off is given here; in the data, active means normalized growth mostly below about 0.91 (no sharp cut-off); inconclusive means no clear call, values can overlap the other calls; inactive means mostly above about 0.92. The list shows a part of the results.
Outcome codes: active, inactive

>  <Compound>
C/C(=C\CO)CC[C@H](C)CCC[C@H](C)CCCC(C)C

>  <Label Value>
active

$$$$
>  <Compound>
CC12CCC(OC(=O)c3ccccc3)CC1CCc1ccccc12 (centres undefined)

>  <Label Value>
inactive

$$$$
>  <Compound>
CC[C@H]1OC(=O)[C@H](C)[C@@H](O[C@H]2C[C@@](C)(OC)[C@@H](O)[C@H](C)O2)[C@H](C)[C@@H](O[C@@H]2O[C@H](C)C[C@H](N(C)C)[C@H]2O)[C@](C)(O)C[C@@H](C)/C(=N/OCOCCOC)[C@H](C)[C@@H](O)[C@]1(C)O

>  <Label Value>
inactive

$$$$
>  <Compound>
CO/N=C(/C(=O)NC1C(=O)N2C(C(=O)OCOC(=O)C(C)(C)C)=C(/C=C\c3scnc3C)CSC12)c1csc(N)n1 (centres undefined)

>  <Label Value>
inactive

$$$$
>  <Compound>
O=C(N[C@@H](CO)[C@H](O)c1ccc([N+](=O)[O-])cc1)C(Cl)Cl

>  <Label Value>
inactive

$$$$
>  <Compound>
CC(=O)O[C@H]1CC2CCC3C(CC[C@@]4(C)C3C[C@H]([N+]3(C)CCCCC3)[C@@H]4OC(C)=O)[C@@]2(C)C[C@@H]1N1CCCCC1 (some centres undefined)

>  <Label Value>
inactive

$$$$
>  <Compound>
CC(=O)OC1CCC2(O)CC1(C)CCC1C2CC1(C)C (centres undefined)

>  <Label Value>
inactive

$$$$
>  <Compound>
CC(C)c1cc2c(c(O)c1O)[C@@]1(C(=O)O)CCCC(C)(C)C1CC2 (some centres undefined)

>  <Label Value>
inactive

$$$$
>  <Compound>
CC(C)=CCC/C(C)=C/CO

>  <Label Value>
inactive

$$$$
>  <Compound>
CC(C)[C@@H]1CC[C@@H](C)CC1=O

>  <Label Value>
inactive

$$$$
>  <Compound>
O=C(O)c1cccnc1C(=O)O

>  <Label Value>
inactive

$$$$
>  <Compound>
COc1ccccc1OCC(O)COC(N)=O (centres undefined)

>  <Label Value>
inactive

$$$$
>  <Compound>
COc1ccc(NS(=O)(=O)c2ccc(N)cc2)nn1

>  <Label Value>
inactive

$$$$
>  <Compound>
CCCc1ncc(C[n+]2ccccc2C)c(N)n1

>  <Label Value>
inactive

$$$$
>  <Compound>
CC(C)[C@@H]1CC[C@@H](C)C[C@H]1OC(=O)c1ccccc1

>  <Label Value>
inactive

$$$$
>  <Compound>
COC(=O)CC1C(C)(C(=O)c2ccoc2)CC2OCC34C(CC(=O)OC)C5(C)CC36OC3(C)OC1(C(OC(C)=O)C6(OC(C)=O)C5OC(=O)C(C)C)C24O3 (centres undefined)

>  <Label Value>
inactive

$$$$
>  <Compound>
CCCCCCCCCCCCCCCC(=O)OC[C@H](NC(=O)C(Cl)Cl)[C@H](O)c1ccc([N+](=O)[O-])cc1

>  <Label Value>
inactive

$$$$
>  <Compound>
CC(=O)O[C@@H]1C2CC[C@@H]3C1(C[C@@H](O)[C@@]1(O)[C@@H](C[C@H](O)C1(C)C)[C@]3(C)O)C[C@@]2(C)O (some centres undefined)

>  <Label Value>
inactive

$$$$
>  <Compound>
CC(=O)OC1CCC23CC1(C)CCC2C(C)(C)CC3OC(C)=O (centres undefined)

>  <Label Value>
inactive

$$$$
